// data source = patent US9926354B2

Target: BACE1 (Homo sapiens)
Sequence (P56817 46-501): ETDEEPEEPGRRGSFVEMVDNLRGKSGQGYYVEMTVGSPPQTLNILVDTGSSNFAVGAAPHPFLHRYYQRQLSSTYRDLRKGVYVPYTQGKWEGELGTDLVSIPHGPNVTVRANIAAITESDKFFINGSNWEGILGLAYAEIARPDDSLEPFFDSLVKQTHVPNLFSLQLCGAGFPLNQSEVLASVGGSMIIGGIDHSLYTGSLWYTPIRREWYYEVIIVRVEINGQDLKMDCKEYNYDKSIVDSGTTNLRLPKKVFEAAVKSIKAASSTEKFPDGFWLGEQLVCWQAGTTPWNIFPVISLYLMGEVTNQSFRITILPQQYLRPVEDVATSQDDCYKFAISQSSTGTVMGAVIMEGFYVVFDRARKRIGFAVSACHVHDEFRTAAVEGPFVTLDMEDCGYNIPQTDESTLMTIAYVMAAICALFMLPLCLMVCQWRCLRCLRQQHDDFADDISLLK
Test: BACE1 activity assay (FRET, cell-free)
Type: biochemical
Set-up: purchased Pan Vera Co., Madison, Wis., USA
Settings: peptide final concentration 20 μM, 90 minutes, room temperature
Protocol: BACE1 Activity Assay—The BACE1 inhibiting activity of APP-based BACE1 site binding peptides were determined using a fluorescence resonance energy transfer (FRET) assay (Pan Vera Co., Madison, Wis., USA), which employs a recombinant baculovirus-expressed BACE1 and a specific substrate (Rh-[…]-quencher) that is based on the APPswe mutation. […] Fluorescence was read using a fluorometer, with excitation at 545 nm and emission at 585 nm. […]
Response key: Criterion met means % of inhibition (mean ± SD) of BACE1 >= 5%; Criterion not met means % of inhibition (mean ± SD) of BACE1 < 5%.

YGRKKRRQRRR [TAT, reference compound] = Criterion not met
YGRKKRRQRRREISEVKMDAEFR (human-virus fusion) [APPwtBBP/TTD2] = Criterion met
EVNLDAEFR (listed as Homo sapiens) [APPsweBBP3] = Criterion met

INPUT: Quick check, % of inhibition (mean ± SD) of BACE1 >= 5%? EISEVKMDAEFR (listed as Homo sapiens) [APPwtBBP]
OUTPUT: Criterion met
